experimentalTarget: interaction between p53 and MDM2 proteins (recombinant GST-tagged MDM2 / p53-peptide) (Homo sapiens)
Sequence (Q00987 whole entry): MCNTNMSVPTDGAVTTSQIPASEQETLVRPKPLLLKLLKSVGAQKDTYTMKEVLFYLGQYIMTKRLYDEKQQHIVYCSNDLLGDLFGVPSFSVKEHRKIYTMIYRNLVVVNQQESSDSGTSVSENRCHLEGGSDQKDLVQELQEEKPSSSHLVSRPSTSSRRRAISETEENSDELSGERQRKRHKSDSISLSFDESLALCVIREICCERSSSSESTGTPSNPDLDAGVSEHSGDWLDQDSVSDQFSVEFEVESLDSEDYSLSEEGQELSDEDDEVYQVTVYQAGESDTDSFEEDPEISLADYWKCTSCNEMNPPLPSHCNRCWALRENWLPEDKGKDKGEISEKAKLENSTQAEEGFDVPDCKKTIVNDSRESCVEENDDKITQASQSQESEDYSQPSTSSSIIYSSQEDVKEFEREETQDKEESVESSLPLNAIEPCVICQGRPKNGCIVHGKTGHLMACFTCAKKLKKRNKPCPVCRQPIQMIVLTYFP
protocolText: HTRF assay of inhibition of the p53-MDM2 interaction (GST-MDM2 binding to biotinylated p53 peptide)
details: 90 nM biotinylated p53 peptide, 160 ng/ml GST-MDM2, 37° C. 1 h
assayMetric: IC50 (nM)

// below: answered compounds
Item N#Cc1cccc(S(=O)(=O)N2c3ccc(C(=O)N4CCOCC4)c(=O)n3[C@@H](c3ccc(Cl)cc3)[C@H]2c2ccc(Cl)cc2)c1 (single isomer, unassigned) has what recorded IC50?
1600

Item N#Cc1cc(S(=O)(=O)N2c3cccc(=O)n3[C@@H](c3ccc(Cl)cc3)[C@H]2c2ccc(Cl)cc2)ccc1F (single isomer, unassigned) [Example 85] has what recorded IC50?
220

I. O=C(CN1CCN(C(=O)c2ccc3n(c2=O)[C@@H](c2ccc(Cl)cc2)[C@@H](c2ccc(Cl)cc2)N3S(=O)(=O)c2ccccc2F)CC1)N1CCOCC1 (racemic)
II. COC(=O)c1cccc(S(=O)(=O)N2c3ccc(C(=O)N4CCN(CC(=O)N5CCOCC5)CC4)c(=O)n3[C@@H](c3ccc(Cl)cc3)[C@H]2c2ccc(Cl)cc2)c1 (racemic)
// compare measured IC50 between I and II ; output the lower one To answer, give the label that identifies your chosen option.
II
